Target: Aromatic-L-amino-acid decarboxylase (Sus scrofa, UniProt P80041)
Sequence (P80041 whole entry): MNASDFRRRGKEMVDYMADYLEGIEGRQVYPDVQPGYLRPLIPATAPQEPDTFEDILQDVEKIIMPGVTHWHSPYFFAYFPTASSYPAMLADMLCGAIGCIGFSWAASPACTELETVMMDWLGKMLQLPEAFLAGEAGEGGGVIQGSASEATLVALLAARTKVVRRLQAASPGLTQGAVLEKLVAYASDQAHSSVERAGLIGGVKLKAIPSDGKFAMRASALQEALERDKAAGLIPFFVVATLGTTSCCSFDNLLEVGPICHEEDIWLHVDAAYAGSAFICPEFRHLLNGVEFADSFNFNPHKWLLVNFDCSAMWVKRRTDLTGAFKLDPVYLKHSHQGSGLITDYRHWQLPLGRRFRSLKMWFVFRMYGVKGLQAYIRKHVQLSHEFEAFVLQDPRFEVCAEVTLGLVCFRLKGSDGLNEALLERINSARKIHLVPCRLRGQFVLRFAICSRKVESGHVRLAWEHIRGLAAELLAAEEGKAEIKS
Assay: Inhibitory activity against pig kidney L-aromatic amino acid decarboxylase (Dopamine decarboxylase)
measured quantity: pKi
Quick note: pKi means taking -log10 of the concentration in moles per liter.

# pKi measured on Aromatic-L-amino-acid decarboxylase (Sus scrofa, UniProt P80041) for item NC1(C(=O)O)CC1c1cccc(O)c1 (single isomer, unassigned; (+)) = 4.66

---

Below: a set of entries, each annotated with reported Relative inhibition.
Target: Aromatic-L-amino-acid decarboxylase (Sus scrofa)
Sequence (whole entry): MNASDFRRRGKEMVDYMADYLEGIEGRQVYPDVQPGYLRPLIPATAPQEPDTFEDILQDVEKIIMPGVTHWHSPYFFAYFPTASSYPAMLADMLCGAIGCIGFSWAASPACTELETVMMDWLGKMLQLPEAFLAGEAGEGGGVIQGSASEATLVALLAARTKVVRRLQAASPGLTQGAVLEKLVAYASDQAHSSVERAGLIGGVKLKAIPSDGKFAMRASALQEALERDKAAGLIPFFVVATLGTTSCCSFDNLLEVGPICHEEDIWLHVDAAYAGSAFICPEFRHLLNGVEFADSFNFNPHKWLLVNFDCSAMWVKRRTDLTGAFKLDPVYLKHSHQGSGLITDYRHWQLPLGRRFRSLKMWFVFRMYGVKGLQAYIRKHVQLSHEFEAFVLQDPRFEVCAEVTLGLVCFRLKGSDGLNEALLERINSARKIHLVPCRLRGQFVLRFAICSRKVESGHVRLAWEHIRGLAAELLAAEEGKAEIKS
Experiment: Relative inhibitory comparison to that of (+)D-m-Tyrosine.

>>> print(df.to_string())
                                   compound  data_value
0  NC1(C(=O)O)CC1c1cccc(O)c1 (single isomer, unassigned; (+))        45.4
1  NC1(C(=O)O)CC1c1cccc(O)c1 (single isomer, unassigned; (-))         1.6
2         N[C@]1(C(=O)O)C[C@@H]1c1cccc(O)c1           3

Lab book: Relative inhibition of N[C@@]1(C(=O)O)C[C@H]1c1cccc(O)c1 noted as 20.4
